For each record, write down the corresponding pIC50.
Target: P-glycoprotein (P-gp, ABCB1) (Homo sapiens)
Construct: P-gp containing membranes of the commercial Pgp-Glo Assay System (Promega; kit membranes carry recombinant human P-gp); full length, not purified
Sequence (P08183 whole entry): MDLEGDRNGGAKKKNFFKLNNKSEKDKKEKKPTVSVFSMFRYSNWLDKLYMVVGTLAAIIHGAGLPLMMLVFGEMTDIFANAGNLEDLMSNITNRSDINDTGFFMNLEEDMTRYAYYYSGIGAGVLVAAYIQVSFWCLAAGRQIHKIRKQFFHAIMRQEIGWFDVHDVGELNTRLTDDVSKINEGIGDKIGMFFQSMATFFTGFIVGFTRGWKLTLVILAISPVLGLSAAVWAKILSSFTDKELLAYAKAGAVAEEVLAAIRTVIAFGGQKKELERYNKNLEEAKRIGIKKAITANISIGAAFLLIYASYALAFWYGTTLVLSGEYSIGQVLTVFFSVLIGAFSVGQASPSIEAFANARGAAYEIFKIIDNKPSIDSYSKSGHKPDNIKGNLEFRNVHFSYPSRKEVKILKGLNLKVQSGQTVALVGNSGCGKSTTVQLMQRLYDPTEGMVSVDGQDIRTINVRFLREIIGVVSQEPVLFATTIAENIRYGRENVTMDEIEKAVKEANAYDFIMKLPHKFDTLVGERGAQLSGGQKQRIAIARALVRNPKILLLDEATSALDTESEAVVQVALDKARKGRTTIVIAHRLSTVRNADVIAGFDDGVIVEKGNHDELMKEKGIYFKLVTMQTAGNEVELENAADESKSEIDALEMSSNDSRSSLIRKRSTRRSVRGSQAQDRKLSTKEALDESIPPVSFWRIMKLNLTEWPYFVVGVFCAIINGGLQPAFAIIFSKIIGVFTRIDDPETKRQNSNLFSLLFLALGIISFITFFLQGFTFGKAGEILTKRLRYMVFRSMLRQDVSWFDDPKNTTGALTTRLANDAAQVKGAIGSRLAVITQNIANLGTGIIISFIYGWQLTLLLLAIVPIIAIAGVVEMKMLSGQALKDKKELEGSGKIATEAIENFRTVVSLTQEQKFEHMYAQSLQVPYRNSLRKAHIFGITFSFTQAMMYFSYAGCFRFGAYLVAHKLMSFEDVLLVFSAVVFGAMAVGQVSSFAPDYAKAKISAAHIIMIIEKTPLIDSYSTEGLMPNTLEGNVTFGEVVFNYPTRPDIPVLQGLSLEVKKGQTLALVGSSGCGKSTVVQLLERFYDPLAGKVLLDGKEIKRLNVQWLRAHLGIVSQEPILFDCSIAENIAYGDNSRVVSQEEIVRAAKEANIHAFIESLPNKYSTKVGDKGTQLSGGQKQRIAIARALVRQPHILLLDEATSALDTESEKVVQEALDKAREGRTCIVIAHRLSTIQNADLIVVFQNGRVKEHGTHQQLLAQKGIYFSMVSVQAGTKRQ
Assay: Pgp-Glo luminescent ATPase assay, P-gp membranes
Remember the convention: pIC50 equals -log10 of concentration in molar.

Write down the reported pIC50 (system: P-glycoprotein (P-gp, ABCB1) (Homo sapiens)) of COc1cc(-c2oc3c(O)cc([C@H]4Oc5cc(O)cc(O)c5C(=O)[C@@H]4O)cc3c2C)ccc1O [Anhydrosilychristin]
4.77

Write down the reported pIC50 (system: P-glycoprotein (P-gp, ABCB1) (Homo sapiens)) of COc1cc([C@@H]2Oc3c(O)cc(-c4oc5cc(O)cc(O)c5c(=O)c4O)cc3[C@H]2CO)ccc1O [2,3-Dehydrosilychristin A]
4.81

Write down the reported pIC50 (system: P-glycoprotein (P-gp, ABCB1) (Homo sapiens)) of COc1cc([C@@H]2Oc3c(O)cc([C@H]4Oc5cc(O)cc(O)c5C(=O)[C@@H]4O)cc3[C@H]2CO)ccc1O [Silychristin A]
4.68

Measured values drawn from paper PMC6720199 for this set.
